These data points were gathered from ChEMBL document CHEMBL1138549.

Tested on: Staphylococcus aureus
Test: Antibacterial activity against Staphylococcus aureus MTCC 96 after 24 hrs by NCCLS M7-A5 method
Format: functional
Details: MTCC 96, 24 h
Answer each item with its documented MIC.
Give bare numbers, in µg/mL.

# example entries with known answers
Compound: COc1cc(C2NC(=O)c3c(C)cc(C)nc3N2)cc(OC)c1OC (centres undefined)
MIC (µg/mL): 1.25

Compound: COc1ccc(-c2nc3nc(C)cc(C)c3c(=O)[nH]2)cc1
MIC (µg/mL): 12.5

Compound: COc1ccc(C2NC(=O)c3c(C)cc(C)nc3N2)c(O)c1 (centres undefined)
MIC (µg/mL): 25

Task: // returns reported MIC for input Cc1cc(C)c2c(=O)[nH]c(-c3cccc(C)c3C)nc2n1
Output: 12.5
